TARGET OR TEST SYSTEM: HIV-1 Env of ZM214.15 (HIV-1)
TEST PROTOCOL: cell-based or functional assay
Reported neutralization IC50 by item:

Solved entries (count: 2):
BINDER: CAP256-VRC26.08 (antibody, V domains shown) VH: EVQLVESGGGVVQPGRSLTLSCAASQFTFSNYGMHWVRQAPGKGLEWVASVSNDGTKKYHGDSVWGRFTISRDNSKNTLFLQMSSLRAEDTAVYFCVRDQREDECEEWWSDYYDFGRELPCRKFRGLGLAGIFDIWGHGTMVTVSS VL: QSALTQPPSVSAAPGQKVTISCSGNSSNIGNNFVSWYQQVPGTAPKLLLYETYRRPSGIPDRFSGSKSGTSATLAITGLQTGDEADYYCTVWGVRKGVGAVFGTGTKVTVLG
EXPERIMENTAL RESULT: > 50 µg/mL
//
BINDER: CAP256-VRC26.03 (antibody, V domains shown) VH: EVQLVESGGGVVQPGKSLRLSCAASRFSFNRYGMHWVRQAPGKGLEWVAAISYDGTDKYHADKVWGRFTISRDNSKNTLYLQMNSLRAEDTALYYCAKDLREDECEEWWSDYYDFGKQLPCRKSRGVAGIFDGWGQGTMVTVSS VL: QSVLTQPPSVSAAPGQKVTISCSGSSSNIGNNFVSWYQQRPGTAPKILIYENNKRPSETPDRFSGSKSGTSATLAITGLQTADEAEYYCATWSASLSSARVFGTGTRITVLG
EXPERIMENTAL RESULT: 1.5 µg/mL

Incoming: Which value of neutralization IC50 has been reported for CAP256-VRC26.04 (antibody, V domains shown) VH: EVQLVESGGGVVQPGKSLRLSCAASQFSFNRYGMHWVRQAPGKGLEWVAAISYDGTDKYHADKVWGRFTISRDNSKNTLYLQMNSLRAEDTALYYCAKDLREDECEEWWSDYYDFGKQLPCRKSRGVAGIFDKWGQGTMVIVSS VL: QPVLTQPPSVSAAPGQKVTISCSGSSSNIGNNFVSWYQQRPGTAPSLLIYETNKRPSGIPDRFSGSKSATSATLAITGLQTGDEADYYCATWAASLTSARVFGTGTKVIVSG in the records?
Outgoing: > 50 µg/mL
